Molecular target: T1, human CD33 extracellular domain (human, UniProt P20138 18-259)
T1 construct: soluble monomeric ECD; also called human CD33 ECD; hCD33
Experiment: SPR, Fab captured, 37C;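 further: Anti-CD33 Fabs captured on anti-Fab chip, soluble monomeric CD33 or its domains flowed over at several concentrations, double-referenced data fitted 1:1, Kd taken as koff/kon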
endpoint-label: kon (M⁻¹ s⁻¹)

• ADI-11807 Fab (Fab, V domains shown, Fab fragment; also called Ab5; I07) VH: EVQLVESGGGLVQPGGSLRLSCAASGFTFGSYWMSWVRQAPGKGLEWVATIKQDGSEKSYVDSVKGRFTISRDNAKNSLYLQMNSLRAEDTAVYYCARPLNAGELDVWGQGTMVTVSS VL: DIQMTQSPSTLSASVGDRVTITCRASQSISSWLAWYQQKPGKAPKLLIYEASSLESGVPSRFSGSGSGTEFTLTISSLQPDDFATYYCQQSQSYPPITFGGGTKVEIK = 1.14e+06
• ADI-11830 Fab (Fab, V domains shown, Fab fragment; also called Ab9) VH: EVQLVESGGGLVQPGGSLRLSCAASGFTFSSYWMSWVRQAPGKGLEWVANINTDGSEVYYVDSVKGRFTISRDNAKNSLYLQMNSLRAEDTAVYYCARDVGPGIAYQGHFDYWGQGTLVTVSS VL: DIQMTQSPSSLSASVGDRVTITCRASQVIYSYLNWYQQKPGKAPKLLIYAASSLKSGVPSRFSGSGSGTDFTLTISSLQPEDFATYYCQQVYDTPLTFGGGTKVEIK = 1.99e+06
• ADI-11815 Fab (Fab, V domains shown, Fab fragment; also called Ab7) VH: QVQLVQSGAEVKKPGASVKVSCKASGYTFGTYYMHWVRQAPGQGLEWMGIINPSRGSTVYAQKFQGRVTMTRDTSTSTVYMELSSLRSEDTAVYYCARGAGYDDEDMDVWGKGTTVTVSS VL: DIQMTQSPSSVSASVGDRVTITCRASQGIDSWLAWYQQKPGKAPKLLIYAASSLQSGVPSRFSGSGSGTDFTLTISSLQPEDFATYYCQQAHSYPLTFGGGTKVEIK = 339000
